Recorded % increase Ex 1 vs Ex A for the following compounds
method_summary: Laundry test followed by SPME GC/MS headspace analysis of cotton tracers
condition_parameters: headspace of the perfume ingredient above wet cotton tracers, Ex 1 (PQ22) versus Ex A (nil-PQ22)
Hi! Could you send only the number? It should be in %, unit omitted.

compound="CC(C)=CCCC(C)CCO (stereo not drawn)" measurement_unit=% result=108
compound="C=C(C)C1CC=C(C)C(=O)C1 (stereo not drawn)" measurement_unit=% result=468
compound="CCOC(=O)C1=C(C)C=CCC1(C)C [Ethyl safranate]" measurement_unit=% result=26
compound=COc1ccc(C)cc1 measurement_unit=% result=13731
compound="CC1=CCC2CC1C2(C)C (stereo not drawn)" measurement_unit=% result=-33

Exam item: Looking for the measured % increase Ex 1 vs Ex A of `CC(=O)c1ccc2ccccc2c1` , can you help?
Marked response: 268

Exam item: Any idea what % increase Ex 1 vs Ex A was measured for `COc1ccc2ccccc2c1` ?
Marked response: 104

Exam item: Item CCC(=O)OCC(C)(C)OC(C)C1CCCC(C)(C)C1 (stereo not drawn) [Helvetolide] has what recorded % increase Ex 1 vs Ex A?
Marked response: -50

----------
# key: entry, value: % increase Ex 1 vs Ex A
method_summary: Laundry test followed by SPME GC/MS headspace analysis of cotton tracers
condition_parameters: headspace of the perfume ingredient above wet cotton tracers, Ex 1 (PQ22) versus Ex A (nil-PQ22)
Your answer is read as %, so omit the unit and give the number.

Worked cases, % increase Ex 1 vs Ex A given:
molecule="CCCC(=O)OCCC(C)C [Isoamyl butyrate, isopentyl butyrate]" result=8685
molecule="CC(=O)OCc1ccccc1 [Benzyl acetate, benzyl acetate]" result=1840
molecule="COC(=O)c1ccccc1O [Methyl salicylate, methyl 2-hydroxybenzoate]" result=915
molecule="CC(C)c1cccc(C(C)CC=O)c1 (stereo not shown) [Florhydral, 3-(3-isopropylphenyl)butanal]" result=-60
molecule="O=C1CCCCCCCCCCCCCCO1 [Exaltolide total, oxacyclohexadecan-2-one]" result=-33

Exam item: Any idea what its % increase Ex 1 vs Ex A is? The molecule is CC(C)=CCCC(C)CC#N (stereo not shown) [Citronellyl nitrile, 3,7-dimethyloct-6-enenitrile]
Marked response: 457

Exam item: Name the recorded % increase Ex 1 vs Ex A for C=CC(C)(O)CCC=C(C)C (stereo not shown) [Linalool, 3,7-dimethylocta-1,6-dien-3-ol] .
Marked response: 42

Exam item: Field request: % increase Ex 1 vs Ex A | item: CCCCCCCC=O [Octyl Aldehyde, octanal]
Marked response: 16

Exam item: # lookup: % increase Ex 1 vs Ex A of C=CCOC(=O)COCCC(C)C [Allyl amyl glycolate, allyl 2-(isopentyloxy)acetate]
Marked response: 2003

Exam item: What % increase Ex 1 vs Ex A value was documented for this molecule, CC(=O)/C=C/C1=C(C)CCCC1(C)C [Ionone beta] ?
Marked response: 18

Exam item: Which measured % increase Ex 1 vs Ex A value corresponds to COc1ccc(C=O)cc1 [Anisic aldehyde, 4-methoxybenzaldehyde] ?
Marked response: 854

Exam item: # input molecule: CC(C)(O)CCc1ccccc1 [Phenyl ethyl dimethyl carbinol, 2-methyl-4-phenylbutan-2-ol] ; wanted: its % increase Ex 1 vs Ex A
Marked response: 1106

Exam item: What % increase Ex 1 vs Ex A value was documented for this molecule, CC(C=O)Cc1ccc(C(C)(C)C)cc1 (stereo not shown) [Lilial] ?
Marked response: -55

Exam item: What does the record list as % increase Ex 1 vs Ex A for CC1/C=C/CCCCCCCCCCC(=O)C1 (stereo not shown) [Delta muscenone, (E)-3-methylcyclopentadec-4-en-1-one] ?
Marked response: -27

Exam item: Requested field: % increase Ex 1 vs Ex A. Item: C=CC(C)(CCC=C(C)C)OC(=O)CC (stereo not shown) [Linalyl propionate]
Marked response: -50
